Ref: paper PMC7803973

Target: PfcFRS (Plasmodium falciparum, UniProt Q8I246)
Experiment: PfcFRS mode of inhibition study (malachite green)
Assay type: biochemical
Conditions: L-Phe varied, ATP constant; global competitive inhibition model
parameter_measured: pKi
The read-out pKi is expressed as -log10 of concentration in moles per litre.

Record request: pKi value, item COC[C@@H]1[C@H](c2ccc(C#Cc3ccccc3)cc2)[C@@H]2CN(C(=O)Nc3ccc(OC4CC4)cc3)C[C@@H](O)[C@@H](O)CN12 [BRD1389]
8.22

* * *

Molecular target: PfcFRS (Plasmodium falciparum)
Sequence (Q8I246 1-575): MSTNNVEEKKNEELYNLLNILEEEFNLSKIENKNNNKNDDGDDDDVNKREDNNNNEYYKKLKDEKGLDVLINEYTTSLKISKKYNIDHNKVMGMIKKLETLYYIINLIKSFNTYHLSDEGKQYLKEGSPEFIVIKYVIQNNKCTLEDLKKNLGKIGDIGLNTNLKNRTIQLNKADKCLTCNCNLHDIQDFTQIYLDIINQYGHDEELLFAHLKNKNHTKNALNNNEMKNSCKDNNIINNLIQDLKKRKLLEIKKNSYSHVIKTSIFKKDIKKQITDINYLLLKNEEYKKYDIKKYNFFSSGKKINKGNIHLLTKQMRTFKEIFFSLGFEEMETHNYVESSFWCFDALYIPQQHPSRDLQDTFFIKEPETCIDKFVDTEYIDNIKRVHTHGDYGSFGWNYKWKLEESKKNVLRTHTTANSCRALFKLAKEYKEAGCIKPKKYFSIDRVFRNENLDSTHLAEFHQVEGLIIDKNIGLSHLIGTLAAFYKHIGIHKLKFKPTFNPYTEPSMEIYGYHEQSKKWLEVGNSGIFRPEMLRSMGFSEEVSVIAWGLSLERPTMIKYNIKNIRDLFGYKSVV
Sequence (Q8IIW2 1-623 partner): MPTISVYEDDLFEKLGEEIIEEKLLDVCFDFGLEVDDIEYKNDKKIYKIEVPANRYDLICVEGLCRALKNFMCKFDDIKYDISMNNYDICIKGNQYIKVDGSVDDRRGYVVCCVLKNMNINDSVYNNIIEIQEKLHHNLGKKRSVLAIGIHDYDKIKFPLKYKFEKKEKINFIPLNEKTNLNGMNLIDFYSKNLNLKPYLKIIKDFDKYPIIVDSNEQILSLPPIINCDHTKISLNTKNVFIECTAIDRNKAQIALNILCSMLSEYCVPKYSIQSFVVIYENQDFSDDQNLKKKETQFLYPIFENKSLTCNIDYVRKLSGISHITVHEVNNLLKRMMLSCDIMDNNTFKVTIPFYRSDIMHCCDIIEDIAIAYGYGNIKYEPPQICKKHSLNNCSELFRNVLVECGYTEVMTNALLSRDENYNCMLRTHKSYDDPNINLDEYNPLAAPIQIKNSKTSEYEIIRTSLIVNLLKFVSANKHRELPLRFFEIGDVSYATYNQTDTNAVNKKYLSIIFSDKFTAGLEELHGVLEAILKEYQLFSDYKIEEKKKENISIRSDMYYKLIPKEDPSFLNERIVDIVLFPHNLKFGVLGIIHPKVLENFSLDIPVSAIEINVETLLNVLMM
parameter_measured: IC50

Given the entry COC[C@@H]1[C@H](c2ccc(C#Cc3ccccc3)cc2)[C@@H]2CN(C(=O)Nc3ccc(OC4CC4)cc3)C[C@@H](O)[C@@H](O)CN12 , what IC50 was observed with PfcFRS (Plasmodium falciparum)?
12 nM
